# System: Staphylococcus epidermidis
# experimental protocol: In vitro minimum inhibitory concentration (MIC) against Staphylococcus epidermidis UC12084
# Format: functional
property label: MIC

Worked set:
# input Lab note: need MIC for CC(=O)NC[C@@H]1CC(c2cc(F)c(N3CCOCC3)c(F)c2)=NO1 on Staphylococcus epidermidis, anyone have it?
# output > 16 µg/mL

# input Lab note: need MIC for CC(=O)NC[C@H]1CC(c2ccc(-n3cc(C#N)cn3)c(F)c2)=NO1 on Staphylococcus epidermidis, anyone have it?
# output 1 µg/mL

# input Lab note: need MIC for COC(=O)N1CC=C(c2ccc(C3=NOC(CNC(C)=O)C3)cc2)CC1 (stereo not given) on Staphylococcus epidermidis, anyone have it?
# output 8 µg/mL

# input Lab note: need MIC for CC(=O)NCC1CC(c2ccc(N3CCN(C(=O)CO)CC3)cc2)=NO1 (stereo not given) on Staphylococcus epidermidis, anyone have it?
# output 4 µg/mL

Could you now consider this next compound?
# input Lab note: need MIC for CC(=O)NCC1CC(c2ccc(C3=CCN(C(C)=O)CC3)cc2)=NO1 (stereo not given) on Staphylococcus epidermidis, anyone have it?
# output 4 µg/mL
